All figures here come from patent US10501421B1.

# Measured target: Ras GEF SOS (Son of Sevenless) (Homo sapiens)
# Sequence (Q07889 564-1049 limits assumed): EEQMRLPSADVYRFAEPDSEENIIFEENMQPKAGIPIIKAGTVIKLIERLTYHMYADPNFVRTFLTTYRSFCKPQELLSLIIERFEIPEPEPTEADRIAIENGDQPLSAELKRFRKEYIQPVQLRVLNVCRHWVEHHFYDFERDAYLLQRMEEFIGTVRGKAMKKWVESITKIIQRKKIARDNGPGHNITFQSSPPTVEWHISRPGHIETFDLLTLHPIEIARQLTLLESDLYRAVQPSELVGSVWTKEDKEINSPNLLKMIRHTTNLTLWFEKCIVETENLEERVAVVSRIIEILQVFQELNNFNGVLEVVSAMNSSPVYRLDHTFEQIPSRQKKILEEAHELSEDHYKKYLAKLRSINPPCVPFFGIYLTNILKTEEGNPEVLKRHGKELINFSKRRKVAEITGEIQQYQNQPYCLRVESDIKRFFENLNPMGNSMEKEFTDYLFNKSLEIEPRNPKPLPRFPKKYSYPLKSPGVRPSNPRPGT
# Sequence (P01112 1-166 partner limits assumed): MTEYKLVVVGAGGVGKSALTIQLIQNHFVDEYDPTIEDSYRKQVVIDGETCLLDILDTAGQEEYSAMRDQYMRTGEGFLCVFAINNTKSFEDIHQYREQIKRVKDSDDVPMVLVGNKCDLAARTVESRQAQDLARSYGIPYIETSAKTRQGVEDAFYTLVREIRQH
# Assay: SOS-mediated nucleotide exchange on Ras (BODIPY-GDP fluorescence)
# Test parameters: SOS-mediated exchange of BODIPY-GDP for GTP on Ras
Structures can show the parent of a compound that is named as a salt.
Measure name: EC50

compound="Cc1cc2nc(NCCN)n(Cc3ccc(F)c(Cl)c3)c2cc1Cl [Example 69, trifluoroacetate]" result="< 1 µM"
compound=Cc1cc2nc(C3CCNCC3)n(Cc3ccc(F)c(Cl)c3)c2cc1C result="5 to 30 µM"
compound="Cc1cc(CN2CCC(O)CC2)c2nc(N3CCNCC3)n(Cc3cc(C)c(F)c(C)c3)c2c1 [Example 126, trifluoroacetate]" result="1 to 5 µM"
compound="Cc1cc(CN(C)C)c2nc(N3CCNCC3)n(Cc3cc(C)c(F)c(C)c3)c2c1 [Example 128, trifluoroacetate]" result="< 1 µM"
compound="CNCc1cc(Cl)cc2c1nc(N1CCNCC1)n2Cc1cc(C)c(F)c(C)c1 [Example 129, trifluoroacetate]" result="< 1 µM"
compound="Clc1ccc(Cn2c(N3CCNCC3)nc3ccccc32)cc1 [Example 11, trifluoroacetate]" result="1 to 5 µM"
compound=Cc1cc2nc(-c3ccncc3)n(Cc3ccc(F)c(Cl)c3)c2cc1C result="30 to 100 µM"
compound=Cc1cc(Cn2c(NCCN)nc3c(-c4ccccc4OC(C)C)cc(Cl)cc32)cc(C)c1F result="1 to 5 µM"
compound="Cc1cc2nc(N3CCNCC3)n(CC3CCCCC3)c2cc1C [Example 37, trifluoroacetate]" result="5 to 30 µM"
compound="Cc1cc(OC2CCNC2)c2nc(N3CCNCC3)n(Cc3cc(C)c(F)c(C)c3)c2c1 (centres unmarked) [Example 327]" result="< 1 µM"
compound="Fc1ccc(Cn2c(N3CCNCC3)nc3ccc(Cl)cc32)cc1Cl [Example 73, trifluoroacetate]" result="< 1 µM"
compound=Cc1cc(Cn2c(NCCN)nc3c(O)cccc32)ccc1F result="5 to 30 µM"
compound="Fc1ccc(Cn2c(N3CCNCC3)nc3ccc(Br)cc32)cc1Cl [Example 63, trifluoroacetate]" result="< 1 µM"
compound="Cc1cc2c(nc(NCCN)n2Cc2ccc(F)c(Cl)c2)c(-c2ccccc2Cl)c1C [Example 113, trifluoroacetate]" result="1 to 5 µM"
compound="Cc1cc(CN2CCCCC2)c2nc(N3CCNCC3)n(Cc3cc(C)c(F)c(C)c3)c2c1 [Example 125, trifluoroacetate]" result="1 to 5 µM"
compound=Cc1ccc2nc([C@H](N)CO)n(Cc3cccc(Cl)c3)c2c1 result="30 to 100 µM"
compound="Cc1cc2nc(NCCN)n(Cc3ccc(F)cc3)c2cc1C [Example 22, trifluoroacetate]" result="5 to 30 µM"
compound="Fc1ccc(Cn2c(N3CCNCC3)nc3ccc(C(F)(F)F)cc32)cc1Cl [Example 71, trifluoroacetate]" result="1 to 5 µM"
compound="Cc1ccccc1C#Cc1ccccc1-c1cc(Cl)cc2c1nc(N1CCNCC1)n2Cc1cc(C)c(F)c(C)c1 [Example 185, trifluoroacetate]" result="5 to 30 µM"
compound=Cc1cc(-c2ccccc2C)c2ncn(Cc3cc(C)c(F)c(C)c3)c2c1 result="30 to 100 µM"
compound=Cc1cnc2nc(N3CCNCC3)n(Cc3ccc(F)c(Cl)c3)c2c1 result="1 to 5 µM"
compound=Cc1ccc2nc(N3CCNCC3)n(Cc3cc(C)c(F)c(C)c3)c2c1 result="< 1 µM"
compound=Cc1cc2nc(NCCO)n(Cc3ccc(F)cc3)c2cc1C result="30 to 100 µM"
compound=Cc1cc(Cn2c(NCC3CNC3)nc3ccc(OCCN(C)C)nc32)ccc1F result="30 to 100 µM"
compound="CC(C)N1CC[C@@H](C(=O)c2ccccc2)[C@H]1c1cc(Cl)cc2c1nc(N1CCNCC1)n2Cc1ccc(F)c(Cl)c1 [Example 152, trifluoroacetate]" result="1 to 5 µM"
compound=Cc1cc(Cn2c(N3CCNCC3)nc3c(C4=CCNCC4)cc(Cl)cc32)cc(C)c1F result="< 1 µM"
compound=Cc1cc(Cn2c(NCCN)nc3c(N4CCN(C)CC4)cc(Cl)cc32)cc(C)c1F result="< 1 µM"
compound="Cc1cc2nc(NCCN3CCOCC3)n(Cc3ccc(F)c(Cl)c3)c2cc1C [Example 30, trifluoroacetate]" result="5 to 30 µM"
compound=Oc1ccc(-c2cccc3c2nc(N2CCNCC2)n3Cc2ccc(F)c(Cl)c2)cc1 result="5 to 30 µM"
compound="Cc1cc2nc(NCCN)n(Cc3ccc(Cl)cc3)c2cc1C [Example 20, trifluoroacetate]" result="5 to 30 µM"
compound="Cc1cc(Cn2c(N3CCCC(N)C3)nc3ccc(OC(C)C(F)(F)F)nc32)ccc1F (centres unmarked)" result="30 to 100 µM"
compound="C=Cc1cc(Cn2c(N3CCNCC3)nc3cc(C)c(C)cc32)ccc1F [Example 52, trifluoroacetate]" result="5 to 30 µM"
